assay: MTS cytotoxicity assay in Hs27 cells; type: cell-based, human; details: human, Hs27 cells (foreskin fibroblasts)
Below is a list of entries, each paired with its recorded CC50 at 18 h value.

>  <input.smiles>
CCCCCCCCCCCCn1cc(CO[C@@H]2OC[C@@H](O)[C@H](O)[C@H]2O)nn1

>  <CC50 at 18 h>
> 1000 µM

$$$$
>  <input.smiles>
CCCCCCCCn1cc(CO[C@@H]2OC[C@@H](O)[C@H](O)[C@H]2O)nn1

>  <CC50 at 18 h>
694 µM

$$$$
>  <input.smiles>
CCCCCCn1cc(CO[C@@H]2OC[C@@H](O)[C@H](O)[C@H]2O)nn1

>  <CC50 at 18 h>
> 1000 µM

$$$$
>  <input.smiles>
CCCCCCCCCCn1cc(CO[C@@H]2OC[C@@H](O)[C@H](O)[C@H]2O)nn1

>  <CC50 at 18 h>
180 µM

$$$$
>  <input.smiles>
CCCCCCCCCCCCCCn1cc(CO[C@@H]2OC[C@@H](O)[C@H](O)[C@H]2O)nn1

>  <CC50 at 18 h>
> 1000 µM

$$$$

Request: Given the compound CCCCCCCCCCCCCCCCn1cc(CO[C@@H]2OC[C@@H](O)[C@H](O)[C@H]2O)nn1 , write its reported CC50 at 18 h.
Result: > 1000 µM

Request: Determine from records and report CC50 at 18 h for O[C@@H]1[C@@H](O)[C@H](OCc2cn(CCC(F)(F)C(F)(F)C(F)(F)C(F)(F)C(F)(F)C(F)(F)F)nn2)OC[C@H]1O
Result: > 1000 µM

* * *

test: MTS cytotoxicity assay in HaCaT cells; type: cell-based, human; conditions: human, HaCaT cells (spontaneously immortalized keratinocytes)
In this section we review reported CC50 at 18 h values for a set of molecules.

# annotated cases, reported CC50 at 18 h shown
>  <input.smiles>
CCCCCCCCCCCCCCn1cc(CO[C@@H]2OC[C@@H](O)[C@H](O)[C@H]2O)nn1

>  <test.readout>
CC50 at 18 h

>  <test.result>
> 1000 µM

$$$$
>  <input.smiles>
CCCCCCCCCCCCCCCCn1cc(CO[C@@H]2OC[C@@H](O)[C@H](O)[C@H]2O)nn1

>  <test.readout>
CC50 at 18 h

>  <test.result>
> 1000 µM

$$$$
>  <input.smiles>
O[C@@H]1[C@@H](O)[C@H](OCc2cn(CCC(F)(F)C(F)(F)C(F)(F)C(F)(F)C(F)(F)C(F)(F)F)nn2)OC[C@H]1O

>  <test.readout>
CC50 at 18 h

>  <test.result>
> 1000 µM

$$$$

Request: Identify CC50 at 18 h associated with the molecule CCCCCCCCCCn1cc(CO[C@@H]2OC[C@@H](O)[C@H](O)[C@H]2O)nn1
Result: 120 µM

Request: Return the recorded CC50 at 18 h value; entry: CCCCCCCCCCCCn1cc(CO[C@@H]2OC[C@@H](O)[C@H](O)[C@H]2O)nn1
Result: > 1000 µM

Request: Return value of CC50 at 18 h for input CCCCCCn1cc(CO[C@@H]2OC[C@@H](O)[C@H](O)[C@H]2O)nn1 , no commentary.
Result: > 1000 µM

Request: Complete the entry with CC50 at 18 h for CCCCCCCCn1cc(CO[C@@H]2OC[C@@H](O)[C@H](O)[C@H]2O)nn1
Result: 890 µM
